# System: Zika virus NS2B-NS3 protease (unlinked complex)
# ASSAY PROCEDURE: Confirmatory screen GU AMC qHTS for Zika virus inhibitors (AID 1347153); also: nearly all actives have a fitted effect of over 70% in size
# EXPERIMENTAL PARAMETERS: Recombinant NS2B-NS3 protease, AMC substrate fluorescence; series mostly up to 111 µM
# Source text: Assay Submitters (PI): Avindra Nath, Ph.D., National Institute of Neurological Disorders and Stroke (NINDS), Bethesda, MD Radhakrishnan Padmanabhan, Ph.D., Georgetown University (GU), Washington D.C. Zika Virus causes congenital defects, including microcephaly and is associated with Guillain-Barre syndrome, eningoencephalitis and myelitis in infected adult. […]
Results filed as inconclusive are left out. Calls of active or inactive are those of the source. Calls follow the shape of the dose curve; as a rule, active = well fitted inhibition curve with a large enough effect; inconclusive = small, poorly fitted or top-dose-only effect; inactive = flat fitted curve, though single readings scatter.
Classes to choose from: T (active), F (inactive)

Incoming: Could you check what this test reported for "N#C/C(=C\c1ccc(Br)cc1)c1nc(-c2cc3cc(Br)ccc3oc2=O)cs1" ?
Outgoing: F

Incoming: Name the outcome recorded for "CC(C)(C)c1ccc(NC(=O)O[C@@H]2CO[C@H]3[C@@H]2OC[C@@H]3Nc2nccc(-c3ccc(-c4ccccc4)cc3)n2)cc1" in the assay.
Outgoing: F

Incoming: Lab log entry: "O=[S+]([O-])([O-])c1ccc2c(c1)cc([S+](=O)([O-])[O-])c1nn(-c3ccc(/C=C/c4ccc(-n5nc6c([S+](=O)([O-])[O-])cc7cc([S+](=O)([O-])[O-])ccc7c6n5)cc4[S+](=O)([O-])[O-])c([S+](=O)([O-])[O-])c3)nc12" — outcome as called in the assay?
Outgoing: T

Incoming: Outcome logged for "O=C(Nc1cccc2ccccc12)O[C@@H]1CO[C@H]2[C@@H]1OC[C@@H]2NS(=O)(=O)c1cccc2cccnc12" in this assay:
Outgoing: F

Incoming: Please share the test call associated with "CS(=O)(=O)c1ccc(Nc2ccc3c(c2)OCO3)c([N+](=O)[O-])c1" .
Outgoing: F

Incoming: Record lookup: outcome of this test for O=C(OC1Cc2c(O)cc(O)cc2OC1c1cc(O)c(O)c(O)c1-c1c(C2Oc3cc(O)cc(O)c3CC2O)cc(O)c(O)c1O)c1cc(O)c(O)c(O)c1 (configuration not stated) ?
Outgoing: T

Incoming: Please state the recorded outcome for this molecule: "O=C(O)c1ccc(-c2ccc(OC(F)(F)F)cc2)cc1"
Outgoing: F

###

# Test system: CP250
# ASSAY PROCEDURE: qHTS profiling for inhibitors of Plasmodium falciparum proliferation (AID 504749); also: nearly all actives have a fitted effect of over 60% in size
# EXPERIMENTAL PARAMETERS: P. falciparum in erythrocytes, SYBR Green DNA, 72 h; series mostly up to 28.7 µM
Results filed as inconclusive are left out. Active and inactive are the calls of the source. Calls come from the whole dose curve; as a rule, active = well fitted inhibition curve with a large enough effect; inconclusive = small, poorly fitted or top-dose-only effect; inactive = flat fitted curve, though single readings scatter.
Outcome field: choose from class 1 for active, class 0 for inactive

Incoming: Any idea what this test logged for O=C(CC1NCCC[C@H]1O)Cn1cnc2cc(Br)c(Cl)cc2c1=O (stereo not given in full) ?
Outgoing: class 1

Incoming: Test call for this compound, please: CC(=O)[C@H]1CC[C@H]2C3CC=C4C[C@@H](O)CC[C@]4(C)C3CC[C@]12C (stereo not given in full)
Outgoing: class 0

Incoming: Test call for this compound, please: "C[C@@H](C(=O)O)c1ccc(-c2ccccc2)c(F)c1"
Outgoing: class 0

Incoming: State the result this test recorded for C/C=C1\C2C=C(C)CC1(N)c1ccc(=O)[nH]c1C2 (stereo not given) .
Outgoing: class 0

Incoming: Which outcome was assigned to "O=C1c2cccc3c2[C@@H](CCC3)CN1[C@@H]1CN2CCC1CC2" in this test?
Outgoing: class 0
